- PROTOCOL_DETAILS: Cell viability assay (CellTiter-Glo) in Jurkat cells
- Type: cell-based
- RECORDED_CONDITIONS: human, Jurkat cells; 72 h; 300 nM; Fig. 4k; read-out: Relative cell viability (%)
ATTRIBUTE_MEASURED: viability at 72 h, 0.3 µM (%)

1. O=C1Nc2ccc(Br)cc2C1=Cc1cc(Br)c(O)c(Br)c1 :: 95.1
2. COCCCN(C(=O)CCl)C(C(=O)NCc1ccccc1)c1ccc(Cl)c(Cl)c1 (stereo not shown) [Compound 15, reference compound] :: 89.8
3. Cc1sc2c(c1C)C(c1ccc(Cl)cc1)=N[C@@H](CC(=O)OC(C)(C)C)c1nnc(C)n1-2 [JQ1, reference compound] :: 35
4. Cc1sc2c(c1C)C(c1ccc(Cl)cc1)=NC(CC(=O)NCCOCCOCCOCCOc1c(Br)cc(C=C3C(=O)Nc4ccc(Br)cc43)cc1Br)c1nnc(C)n1-2 (stereo not shown) :: 33.9
